- protocol.text: soluble fraction after stress (log2 fold change); higher = more stays soluble; pooled small domains, quantitative proteomics
- stated.conditions: stress: 50 degC
readout.label: soluble fraction (log2)
Write the number on its own, no unit after it.

{"seq.string": "HMREPQMVTVNGDKVTHGHAYRSNVNPEDWYFTARINGQQLKPQKMEPADVAAYDKKEIGVPELMQR", "soluble fraction (log2)": -0.0941}
{"seq.string": "HMIDQNEDLLSGYIDEVLSQNPDKVNEYLKGKSGLIGFFMGQIKQKSATALDAALLKSQLETALEKLRIK", "soluble fraction (log2)": 0.059}

# next sequence below
Find the measured soluble fraction (log2) of HMNQADNFNSLTKREKDVLLLVTQGESNKSIADKLVLSEVTVKSHLNSIFKKLNVTNRTQAVLVAMQMNLV and report it. 0.03

---

- protocol.text: soluble fraction after stress (log2 fold change); higher = more stays soluble; pooled small domains, quantitative proteomics
- stated.conditions: stress: 50 degC
The entries below come with measured soluble fraction (log2) values attached.
Could you respond with only the numeric value?

{"seq.string": "HMKMATITKRTNPSGAVVYRAQVRVKREGYPPYSESRTFSKKSLATEWAKRREFEIETNPDLLFN", "soluble fraction (log2)": -1.26}

Give a short answer stating reported soluble fraction (log2) for HMVREVSYDQFLHFVEAKQVGMVYQDGESLMFTLKEDVEKEWGVTAYKTGLWPDANLTDRLLDAGVVFS . -0.715

Indicate the recorded soluble fraction (log2) value for this sequence: HMKISQSRKAGKLVLESELKRGGVSLDQYRGGRMSRILELIGVKSLNELLTDLGTGKKTGALVAERFFSGL -0.444

Provide only the value of recorded soluble fraction (log2) for HMSENKIMEIVQDLAREKSVILISHRLANVTAADKILYMEQGKIAESGTHEQLMAQNKAYAALFNKQQEL -0.11

---

- protocol.text: soluble fraction after stress (log2 fold change); higher = more stays soluble; pooled small domains, quantitative proteomics
- stated.conditions: stress: 50 degC
Collected soluble fraction (log2) values appear next to each entry.
Give a plain numeric answer without units written out.

Fill in reported soluble fraction (log2) for this entry: HMTNEWRKILSNLNGKYQIVMELFYVDGFSTKEIARMLHITEVNVRSRMVRGRKQLEQILTVR -0.15

---

- protocol.text: soluble fraction after stress (log2 fold change); higher = more stays soluble; pooled small domains, quantitative proteomics
- stated.conditions: stress: 50 degC
readout.label: soluble fraction (log2)
Note: the reply should be a number with no unit written.

{"seq.string": "HMEKEYMKNVVGMEYRQARVLLGDMGLELAFQPVYETSDKYPTDVVVSTEPAADQPLTKGQTVILHIST", "observed.result": 0.288}
{"seq.string": "HMEDYYKILGVQSNSNPDDIKKAYRKLSLKHHPDRGGDASEFKKINEAYQTLGTPEKRKMYDMQQNN", "observed.result": -0.0117}
{"seq.string": "HMRPRQDRSEETRDRILDAVVELIAERGLAGVSHRAVADRAGVSLSATSYYFGSKAELERAALEEHYRR", "observed.result": -0.709}
{"seq.string": "HMAKVDIPHEMVDQRIDEIVEEIKMNLESQNMSLDDYLKRMNQTEAQLRANYEATAAEQVRQGLV", "observed.result": 0.314}
{"seq.string": "HMLEINTIIGNNLKKIRQEKKLTLDELAGITGVSKGMLSQIEKGTTNPTINTIWKISNGLNVPYTYLLEDD", "observed.result": 0.183}
{"seq.string": "HMNKEHINLDSSKFLSLLNKTKISMSNDETRHYLNGIYIHPTVSNKSSYLTGVATDSHRLSSSSIPVD", "observed.result": 0.121}
{"seq.string": "HMEKYIVEAEEQGKRLDMYISSKDEELTRTSAQRLIEQGDILVNNKKVKVAYKVSEGDIIAVEKQ", "observed.result": 0.0849}
{"seq.string": "HMKRITGHLTEKNKKWYAVINLYDTDGKRKEKWQGLNLDANKGNKREAEHRLRQILDQYNTD", "observed.result": -0.0127}
{"seq.string": "HMNIGVEQIEQMERGALITLWQELIDKPLPRHMSIVFLRQVLAFEVQSKQNGGLPRGFITLLNKQAD", "observed.result": -0.824}
{"seq.string": "HMDTIASESVRNRIEELISNENPKKPLSDQALVKMLQEFDIKIARRTVAKYREMLKIPPSSKRKQV", "observed.result": 0.0652}

Look up and report measured soluble fraction (log2) for this entry: HMGAYPENSLLKERGQSAVYLIQENRKRLFFNAEAFLINGYNWKDIQVVDDLSKILTGKVIYAK -2.76

Give recorded soluble fraction (log2). HMWDRFGELDSAEEINRIAAAELREGDIDALKVLAEENGLDKDDVEDYIDRLIDELTTPELAAIGKLDV 0.0934

Answer with the recorded soluble fraction (log2) of HMSVNEKVRLFRELNQWSQEEMAERMNMSVAGYAKIERGETNISLHKLKQIASVLQIDLLDLVS only. -0.32

Give the value of soluble fraction (log2) reported for the following: HMKEEVMVPNVVGKELSAALLEMQVKELYPKLQLKYSNFVDDKGTVLEQSPPAGSIVKAGRRINLVVSRGA 0.144

Tell me its soluble fraction (log2) given HMVTGSIYERKGIYYAIVSYYVDGRRKQKSVSTGLSVKGNKRRALEFLENLKRTYETKESMENMD as the entry. -3.16

Entry HMNASVIADLFRQTGASVMIHGHTHRPDIHALEANGDAAFRAVLGAWHTEGSMIRVTQDDVTLIAFP needs its soluble fraction (log2) filled in; supply it. 0.0376

---

- protocol.text: soluble fraction after stress (log2 fold change); higher = more stays soluble; pooled small domains, quantitative proteomics
- stated.conditions: stress: 50 degC
readout.label: soluble fraction (log2)
Please respond with just the number, no unit label.

Observe how each entry below is paired with its result.
{"seq.string": "HMSNQLAVPDVTNMKANAAADRLRQQGLRVELKTESSNTVPRGMAIRTDPAASTMVARGGRVTLIISSGKG", "soluble fraction (log2)": -0.000921}
{"seq.string": "HMKIPIIYQPLKNAKRIKIYIPYELKELRTIFKKINTTFWHPNQKLWSIIYTQENVALIKNLFGKNYKIVN", "soluble fraction (log2)": -0.547}
{"seq.string": "HMFQNYTDAVVVASKTFFYNMPDESTRKSAYLIQGDRIMVEKSQRNFVYVTFTNEASGRTTTGWLKSDDLE", "soluble fraction (log2)": -2.9}
{"seq.string": "HMLLQTAVISTDIVNMRAEPTTNSSVIRKLTKGSDITINQEKDGWYKISDDQGNSGWIVTWAAKPT", "soluble fraction (log2)": 0.0497}
{"seq.string": "HMGNYEEAILAFEAAIKIDPKNADAYRKLAEAYEKTGDEDAALRTLETGAEATGDRELADLAEKKRQELDA", "soluble fraction (log2)": 0.169}
{"seq.string": "HMSDIISEIESQVMFKLATYEITNATEKMIEALINSEINDRRTLGFPIPNEQGRIFLVRSIQNKLAV", "soluble fraction (log2)": -1.05}
{"seq.string": "HMKTSVGSKMMVMANNLSIRKSANLLSEKLADLSKGDMVEYISSTNGWNKVRYNGYVGYVSSYYLKDTGEV", "soluble fraction (log2)": -0.738}
{"seq.string": "HMTTYSVDLGDIRAVADSDGKLVELTLHAAVTTHYSHSELADRLNLAFTALREEAQADYETRY", "soluble fraction (log2)": 0.127}
{"seq.string": "HMGKNYYEILGITKSASEEQVRKAFRGLAMEWHPDRNRSADSEERFKEINEAYQVLIDPKKRQMYDQYGR", "soluble fraction (log2)": 0.388}

Identify the reported soluble fraction (log2) for the following entry. HMDRSKREKEQQELMLKVQQIFDDNQQRFGAEKIRTVLAQNGVRVSVKRVSAIMQELNLRSIR -0.871

---

- protocol.text: soluble fraction after stress (log2 fold change); higher = more stays soluble; pooled small domains, quantitative proteomics
- stated.conditions: stress: 50 degC
readout.label: soluble fraction (log2)
// print number alone

Quick one: give measured soluble fraction (log2) for HMSVLQGLIESFKAGDRNLYEVAERLNVTEPFLAEALKDYRARFPKGVQVDNFWISFRPYLTIAEV -1.41

Supply reported soluble fraction (log2) belonging to this sequence: HMNISRESLIGQILATLNKNPEEGFNYKQIAKRLNITDSPGRQMISDLLRELSKHGSLQEISHGKYKIKV -0.226

// fetch soluble fraction (log2) given entry HMAVSDAAEEYGKAGTPLVILAGKEYGSGSSRDWAAKGPYLQGVRAVLAESYERIHRSNLVGMGIVPLTYK 0.0654

---

- protocol.text: soluble fraction after stress (log2 fold change); higher = more stays soluble; pooled small domains, quantitative proteomics
- stated.conditions: stress: 50 degC
Our labelling divides records by soluble fraction (log2) into ranges: bin 1 (below -0.2), bin 2 (-0.2 to below 0.1), bin 3 (0.1 or more)

See these solved cases before continuing.
{"seq.string": "HMGNQALSSVLSDIAGIGPVKTKELLRVYPDLDSLRQAPVEEVAKVKGIGRQLAQKIHDHFSSR", "assigned.category": "bin 3"}
{"seq.string": "HMHDYYDSIDAVTHDKSYESNLVFALKLGYTETQLQKALLKLGKKAREDQILEELIRIQKSSKA", "assigned.category": "bin 3"}
{"seq.string": "HMGGTATDYYNQGRTAYDVGDYNGALMNFQEAVRLDPRYGEAYYGLGKAYEALNMQNQALDAYLSAI", "assigned.category": "bin 2"}
{"seq.string": "HMKKSIRIFELMKAKVAAEIFDQMILEGKIEDVFDIIVRLKDSNVSNIMKTMSVENSSRLVQKLERYNKD", "assigned.category": "bin 1"}

Which band does HMQQTAEDWKNKGDSLTAQSEYVEAIAAYDEAIRLDPNYAPAWSNKGNALKNLGEYYKAIQAYDEAIRL fall in? bin 3

State the band of HMVAPKTEEQQKMFLESIVTKRQAETLIEKYPNIVQDIIDGTDNVDLANLKGIGEHTYNLIKEKVLSNY bin 3

State the class of the sequence shown: HMTETIPVSERLFRYLFEEKGKRVQKIQQTSHARVRMERSPYSVVVSGTKDAVEAAMESLKATEKELLEA bin 3

Category of HMETQVKVPNVVGMTQSKAIAKLKESKLDYEVQEQKHDGDKGKVVDQSEAEGTYVDRGTKVIIYVSTGE : bin 2

Quick check: band for HMITDSSEIEAMVDALVKENPGQAEQYKDGNMKVAGWFIGQIMKVSKGKANPQLVGDLLKKKLG bin 3
